Tested on: TNF-α release from human peripheral blood mononuclear cells (PBMC)
Test: TNF-α Release in LPS stimulated PBMC
Format: cell-based
Settings: 30 minutes pre-incubation, stimulated 18 hours with lipopolysaccharide, TNF-α in supernatant by enzyme immunoassay
Decide using IC50 alone. Strictly below 90 nM: true (1). Equal to or above 90 nM: false (0).

Threshold test, IC50 < 90 nM: COc1ccc(C(=O)Cc2c(Cl)cncc2Cl)c2c1OCC1(COC1)CO2
true (1)

What about this molecule? COc1ccc(C(=O)Cc2c(Cl)c[n+]([O-])cc2Cl)c2c1OCC1(COC1)CO2
true (1)

What about this molecule? COc1ccc(C(=O)Cc2c(Cl)cncc2Cl)c2c1OC1(CC[S+]([O-])CC1)O2 (stereo not drawn)
true (1)

What about this molecule? COc1ccc(C(=O)Cc2c(Cl)cccc2Cl)c2c1OC1(CCSCC1)O2
false (0)

What about this molecule? COc1ccc(C(=O)Cc2c(Cl)c[n+]([O-])cc2Cl)c2c1OC1(CCS(=O)(=O)CC1)O2
true (1)

What about this molecule? COc1ccc(C(=O)Cc2c(Cl)c[n+]([O-])cc2Cl)c2c1OCC1(CCOCC1)CO2
true (1)

What about this molecule? COc1ccc(C(=O)Cc2ccccc2Cl)c2c1OC1(CCSCC1)O2
false (0)

What about this molecule? COc1ccc(C(=O)Cc2nccnc2Br)c2c1OC1(CCSCC1)O2
false (0)

What about this molecule? COc1ccc(C(=O)Cc2c(Cl)cncc2Cl)c2c1OC1(CCS(=O)(=O)CC1)O2
true (1)

What about this molecule? COc1ccc(C(=O)Cc2cnccn2)c2c1OC1(CCSCC1)O2
false (0)

What about this molecule? COc1ccc(C(=O)Cc2c(Cl)c[n+]([O-])cc2Cl)c2c1OC1(CCOCC1)O2
true (1)

What about this molecule? COc1ccc(C(=O)Cc2c(Cl)cncc2Cl)c2c1OCC1(CO2)CSC1
true (1)

What about this molecule? COc1ccc(C(=O)Cc2c(Cl)cncc2Cl)c2c1OC1(CCN(C(C)=O)CC1)O2
false (0)

What about this molecule? COc1ccc(C(=O)Cc2c(Cl)cncc2Cl)c2c1OC1(CCN(S(C)(=O)=O)CC1)O2
false (0)

What about this molecule? COc1ccc(C(=O)Cc2ccncc2)c2c1OC1(CCSCC1)O2
false (0)

What about this molecule? COc1ccc(C(=O)Cc2c(Cl)cncc2Cl)c2c1OCC1(CO2)OCCO1
false (0)

What about this molecule? COc1ccc(C(=O)Cc2c(Cl)cncc2Cl)c2c1OC1(CCSCC1)O2
true (1)

What about this molecule? COc1ccc(C(=O)Cc2c(Cl)cncc2Cl)c2c1OC1(CCOCC1)O2
true (1)

What about this molecule? COc1ccc(C(=O)Cc2c(Cl)c[n+]([O-])cc2Cl)c2c1OCC1(CO2)CS(=O)(=O)C1
false (0)

What about this molecule? COc1ccc(C(=O)Cc2ccncc2Br)c2c1OC1(CCSCC1)O2
false (0)

What about this molecule? COc1ccc(C(=O)Cc2c(Cl)cncc2Cl)c2c1OC1(CCSC1)O2 (stereo not drawn)
true (1)

What about this molecule? COc1ccc(C(=O)Cc2c(Cl)cncc2Cl)c2c1OCC1(CO2)CSCSC1
true (1)

What about this molecule? COc1ccc(C(=O)Cc2c(Cl)cncc2Cl)c2c1OCC1(CO2)CS(=O)(=O)C1
false (0)

What about this molecule? COC(=O)N1CCC2(CC1)Oc1c(OC)ccc(C(=O)Cc3c(Cl)cncc3Cl)c1O2
false (0)

What about this molecule? COc1ccc(C(=O)Cc2c(Cl)cncc2Cl)c2c1OCC1(CCOCC1)CO2
true (1)

What about this molecule? COc1ccc(C(=O)Cc2c(Cl)cncc2Cl)c2c1OCC1(COCOC1)CO2
true (1)

What about this molecule? COc1ccc(C(=O)Cc2c(Cl)c[n+]([O-])cc2Cl)c2c1OCC1(COCOC1)CO2
true (1)

What about this molecule? COc1ccc(C(=O)Cc2c(Cl)cncc2Cl)c2c1OC1(CCNCC1)O2
false (0)

What about this molecule? COc1ccc(C(=O)Cc2ccnc3ccccc23)c2c1OC1(CCSCC1)O2
false (0)

FYI, the data here is from patent US8338431B2.
